Taken from ChEMBL document CHEMBL1156932.

For each record, write down the corresponding Cmax.
# TEST_METHOD_NOTES: Cmax in anesthetized Sprague-Dawley rat at 5 mg/kg, iv
# Type: ADME, organism-based
# Set-up: dose 5 mg/kg, route intravenous
# TEST_PARAMETERS: in vivo
Quick reminder: number only, in µM, skip the unit.

What Cmax value was documented for this compound, N=C(N)c1cc2c(OC(COC(=O)Nc3ccc(F)cc3)c3ccccc3)cccc2s1 (configuration not stated) ?
10.5

What Cmax value was documented for this compound, Cc1cc(NC(=O)OCC(Oc2cccc3sc(C(=N)N)cc23)c2ccccc2)n(C)n1 (configuration not stated) ?
5.19

###

For each record, write down the corresponding metabolised.
# TEST_METHOD_NOTES: Metabolic stability in human liver assessed as turnover
# Type: ADME, tissue-based
# TEST_PARAMETERS: read-out: Stability
Quick reminder: number only, in %, skip the unit.

What metabolised value was documented for this compound, Cc1cc(NC(=O)OCC(Oc2cccc3sc(C(=N)N)cc23)c2ccccc2)n(C)n1 (configuration not stated) ?
18

What metabolised value was documented for this compound, N=C(N)c1cc2c(OC(COC(=O)Nc3ccc(F)cc3)c3ccccc3)cccc2s1 (configuration not stated) ?
11

###

# TEST_METHOD_NOTES: Half life in anesthetized Sprague-Dawley rat at 5 mg/kg, iv
# Format: ADME, organism-based
# Set-up: dose 5 mg/kg, route intravenous
# TEST_PARAMETERS: in vivo
PROPERTY_NAME: half-life (h)
Quick reminder: number only, in h, skip the unit.

What half-life value was documented for this molecule, Cc1cc(NC(=O)OCC(Oc2cccc3sc(C(=N)N)cc23)c2ccccc2)n(C)n1 (configuration not stated) ?
2.1

What half-life value was documented for this molecule, N=C(N)c1cc2c(OC(COC(=O)Nc3ccc(F)cc3)c3ccccc3)cccc2s1 (configuration not stated) ?
5.5

###

# TEST_METHOD_NOTES: Selectivity ratio of Ki for uPA to Ki for human recombinant factor 9a
For each record, write down the corresponding Ratio Ki.

What Ratio Ki value was documented for this compound, CNCc1ccccc1NC(=O)OCC(Oc1cccc2sc(C(=N)N)cc12)c1ccccc1 (stereo not given) ?
103

What Ratio Ki value was documented for this compound, CN1CCN(Cc2ccc(NC(=O)OCC(Oc3cccc4sc(C(=N)N)cc34)c3ccccc3)cc2)CC1 (stereo not given) ?
20

What Ratio Ki value was documented for this compound, N=C(N)c1cc2c(OC(COC(=O)Nc3ccccc3)c3ccccc3)cccc2s1 (stereo not given) ?
44

What Ratio Ki value was documented for this compound, Cc1cc(NC(=O)OCC(Oc2cccc3sc(C(=N)N)cc23)c2ccccc2)n(C)n1 (stereo not given) ?
17

What Ratio Ki value was documented for this compound, N=C(N)c1cc2c(OC(COC(=O)Nc3c(F)cccc3F)c3ccccc3)cccc2s1 (stereo not given) ?
34

###

# TEST_METHOD_NOTES: Clearance in anesthetized Sprague-Dawley rat at 5 mg/kg, iv
# Type: ADME, organism-based
# Parameters: dose 5 mg/kg, route intravenous
# TEST_PARAMETERS: in vivo
For each record, write down the corresponding clearance.
Quick reminder: number only, in mL/min/kg, skip the unit.

What clearance value was documented for this compound, Cc1cc(NC(=O)OCC(Oc2cccc3sc(C(=N)N)cc23)c2ccccc2)n(C)n1 (configuration not stated) ?
129

What clearance value was documented for this compound, N=C(N)c1cc2c(OC(COC(=O)Nc3ccc(F)cc3)c3ccccc3)cccc2s1 (configuration not stated) ?
32.4
